Data credit: patent US20120214847A1

Molecular target: human GR (Homo sapiens, UniProt P04150)
Construct: naturally expresses the human GR; endogenous in cells
Sequence (P04150 1-777): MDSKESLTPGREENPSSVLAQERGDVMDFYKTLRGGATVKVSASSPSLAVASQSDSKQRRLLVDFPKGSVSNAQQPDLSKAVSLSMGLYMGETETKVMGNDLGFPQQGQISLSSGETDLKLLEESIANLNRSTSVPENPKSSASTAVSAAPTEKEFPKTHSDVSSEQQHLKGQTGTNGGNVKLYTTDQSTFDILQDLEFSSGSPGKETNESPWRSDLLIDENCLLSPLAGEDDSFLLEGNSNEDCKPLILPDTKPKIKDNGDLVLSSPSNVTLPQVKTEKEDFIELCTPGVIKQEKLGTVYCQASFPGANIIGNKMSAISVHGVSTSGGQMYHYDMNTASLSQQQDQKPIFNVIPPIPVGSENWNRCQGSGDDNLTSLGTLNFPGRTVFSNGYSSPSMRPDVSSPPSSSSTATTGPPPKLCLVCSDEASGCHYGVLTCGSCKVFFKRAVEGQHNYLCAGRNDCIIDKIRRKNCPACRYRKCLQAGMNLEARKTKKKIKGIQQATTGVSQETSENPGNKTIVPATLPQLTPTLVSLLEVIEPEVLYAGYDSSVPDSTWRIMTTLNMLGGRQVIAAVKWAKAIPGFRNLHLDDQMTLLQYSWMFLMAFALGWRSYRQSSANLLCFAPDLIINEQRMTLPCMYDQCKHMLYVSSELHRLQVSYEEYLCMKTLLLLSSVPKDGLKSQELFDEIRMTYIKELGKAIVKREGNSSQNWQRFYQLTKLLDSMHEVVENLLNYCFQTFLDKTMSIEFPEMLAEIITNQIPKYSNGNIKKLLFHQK
Experiment: Trans-activation modulation of glucocorticoid receptor (GRAMMER), MMTV-LUC reporter in A549 cells
Format: cell-based
Details: A549 cells; IP = inflection point; read-out: Transactivation A549 Cells Grammer IP
pEC50: −log10 of the molar value.
The entries below come with measured pEC50 values attached.
MEASURED METRIC: pEC50

{"MOLECULE": "CC[C@]12Cc3cnn(-c4ccc(F)cc4)c3C=C1CC[C@@]2(O)CC(O)c1ccccn1 (stereo partly shown)", "MEASURED NUMBER": 7.31}
{"MOLECULE": "NS(=O)(=O)c1ccccc1CC[C@]1(O)CCC2=Cc3c(cnn3-c3cccnc3)C[C@@]21C1CC1", "MEASURED NUMBER": 7.62}
{"MOLECULE": "CC[C@]12Cc3cnn(-c4cccnc4)c3C=C1CC[C@@]2(O)CCc1ccc(F)cc1C#N", "MEASURED NUMBER": 7.12}
{"MOLECULE": "N#Cc1c(F)cccc1CC[C@]1(O)CCC2=Cc3c(cnn3-c3ccccc3)C[C@@]21C1CC1", "MEASURED NUMBER": 7.49}

---

Molecular target: human GR (Homo sapiens)
Construct: naturally expresses the human GR; endogenous in cells
Test: Trans-activation modulation of glucocorticoid receptor (GRAMMER), MMTV-LUC reporter in A549 cells
Assay type: cell-based
Settings: A549, A549 cells; Emax relative to the activity obtained with 300 nM dexamethasone; read-out: Transactivation A549 Cells Grammer Emax (%)
Classify by measured Emax: True if it is equal to or exceeds 30%, False if it is smaller.

{"MOLECULE": "CC[C@]12Cc3cnn(-c4ccc(F)cc4)c3C=C1CC[C@@]2(O)CCc1ccccc1CCC(N)=O", "ASSIGNED CLASS": "False"}
{"MOLECULE": "CC[C@]12Cc3cnn(-c4ccc(F)cc4)c3C=C1CC[C@@]2(O)CCc1ncccc1S(C)(=O)=O", "ASSIGNED CLASS": "True"}
{"MOLECULE": "CC[C@]12Cc3cnn(-c4cccnc4)c3C=C1CC[C@@]2(O)CCc1ccccc1C(N)=O", "ASSIGNED CLASS": "True"}
{"MOLECULE": "NC(=O)c1ccccc1CC[C@]1(O)CCC2=Cc3c(cnn3-c3ccccc3)C[C@@]21C1CC1", "ASSIGNED CLASS": "False"}
{"MOLECULE": "CC[C@]12Cc3cnn(-c4ccc(F)cc4)c3C=C1CC[C@@]2(O)CC(O)c1c(F)ccnc1Cl (stereo partly drawn)", "ASSIGNED CLASS": "True"}
{"MOLECULE": "Cc1ccnc(CC[C@]2(O)CCC3=Cc4c(cnn4-c4ccc(F)cc4)C[C@@]32C2CC2)c1", "ASSIGNED CLASS": "False"}
{"MOLECULE": "O=S(=O)(c1ccccc1CC[C@]1(O)CCC2=Cc3c(cnn3-c3ccc(F)cc3)C[C@@]21C1CC1)C1CC1", "ASSIGNED CLASS": "False"}
{"MOLECULE": "CC[C@]12Cc3cnn(-c4ccc(F)cc4)c3C=C1CC[C@@]2(O)CCc1cccc(F)c1CC(N)=O", "ASSIGNED CLASS": "True"}
{"MOLECULE": "CC[C@]12Cc3cnn(-c4ccc(F)cc4)c3C=C1CC[C@@]2(O)CCc1cccc(OC)c1C(N)=O", "ASSIGNED CLASS": "True"}
{"MOLECULE": "CC[C@]12Cc3cnn(-c4ccc(F)cc4)c3C=C1CC[C@@]2(O)CC(O)c1cc(C#N)ccn1 (stereo partly drawn)", "ASSIGNED CLASS": "False"}
{"MOLECULE": "N#Cc1ccccc1CC[C@]1(O)CCC2=Cc3c(cnn3-c3ccccc3)C[C@@]21C1CC1", "ASSIGNED CLASS": "False"}
{"MOLECULE": "CC[C@]12Cc3cnn(-c4ccc(F)cc4)c3C=C1CC[C@@]2(O)CCc1ccc(F)cc1C(N)=O", "ASSIGNED CLASS": "True"}
{"MOLECULE": "CC[C@]12Cc3cnn(-c4ccccc4)c3C=C1CC[C@@]2(O)CC(O)c1cc(C#N)ccn1 (stereo partly drawn)", "ASSIGNED CLASS": "False"}
{"MOLECULE": "CC[C@]12Cc3cnn(-c4ccc(F)cc4)c3C=C1CC[C@@]2(O)CCc1cncc(F)c1", "ASSIGNED CLASS": "True"}
{"MOLECULE": "CC[C@]12Cc3cnn(-c4ccc(F)cc4)c3C=C1CC[C@@]2(O)CCc1nccc(C2CC2)c1C(=O)OC", "ASSIGNED CLASS": "False"}
{"MOLECULE": "CC(C)(CO)NC(=O)c1ccccc1CC[C@]1(O)CCC2=Cc3c(cnn3-c3ccc(F)cc3)C[C@@]21C1CC1", "ASSIGNED CLASS": "True"}
{"MOLECULE": "CC[C@]12Cc3cnn(-c4cccnc4)c3C=C1CC[C@@]2(O)CCc1cccc(F)c1C#N", "ASSIGNED CLASS": "False"}
{"MOLECULE": "O=C(NC1(CO)CC1)c1ccccc1CC[C@]1(O)CCC2=Cc3c(cnn3-c3ccc(F)cc3)C[C@@]21C1CC1", "ASSIGNED CLASS": "True"}
{"MOLECULE": "CC(C)(CO)NC(=O)c1cc(F)cnc1CC[C@]1(O)CCC2=Cc3c(cnn3-c3ccc(F)cc3)C[C@@]21C1CC1", "ASSIGNED CLASS": "True"}
{"MOLECULE": "CCS(=O)(=O)c1ccccc1CC[C@]1(O)CCC2=Cc3c(cnn3-c3ccc(F)cc3)C[C@@]21C1CC1", "ASSIGNED CLASS": "False"}
{"MOLECULE": "CC[C@]12Cc3cnn(-c4cccnc4)c3C=C1CC[C@@]2(O)CCc1ccccc1C#N", "ASSIGNED CLASS": "False"}
{"MOLECULE": "OC(C[C@]1(O)CCC2=Cc3c(cnn3-c3ccc(F)cc3)C[C@@]21C1CC1)c1ccccn1 (stereo partly drawn)", "ASSIGNED CLASS": "False"}
{"MOLECULE": "CC[C@]12Cc3cnn(-c4ccc(F)cc4)c3C=C1CC[C@@]2(O)CCc1nccc(OC)c1CC(N)=O", "ASSIGNED CLASS": "True"}
{"MOLECULE": "NC(=O)[C@H](F)c1c(F)cccc1CC[C@]1(O)CCC2=Cc3c(cnn3-c3ccc(F)cc3)C[C@@]21C1CC1", "ASSIGNED CLASS": "False"}
{"MOLECULE": "N#Cc1ccccc1CC[C@]1(O)CCC2=Cc3c(cnn3-c3cccnc3)C[C@@]21C1CC1", "ASSIGNED CLASS": "False"}
{"MOLECULE": "COc1ccnc(CC[C@]2(O)CCC3=Cc4c(cnn4-c4ccc(F)cc4)C[C@@]32C2CC2)c1C(N)=O", "ASSIGNED CLASS": "False"}
{"MOLECULE": "CC[C@]12Cc3cnn(-c4ccc(F)cc4)c3C=C1CC[C@@]2(O)CC(O)c1ncccc1F (stereo partly drawn)", "ASSIGNED CLASS": "True"}
{"MOLECULE": "N#Cc1ccnc(CC[C@]2(O)CCC3=Cc4c(cnn4-c4ccc(F)cc4)C[C@@]32C2CC2)c1", "ASSIGNED CLASS": "False"}
{"MOLECULE": "NS(=O)(=O)c1ccccc1CC[C@]1(O)CCC2=Cc3c(cnn3-c3cccnc3)C[C@@]21C1CC1", "ASSIGNED CLASS": "True"}
